Tested on: Escherichia coli TOP10
Test: shrunken log2 fold change of peptide-encoding DNA abundance (4.5 h post-induction vs induction); higher = less antimicrobial activity (less host growth inhibition)
Conditions: time post-induction: 4.5 h; library: site-saturation at positions 5, 18, 19, 20
Cut-off 0.009 on shrunken log2 fold change, inclusive. At or above means met; below means not met.

chain	classification
RRIRMRPPRLPRPRPRPWGLPRP	met

Next up:
Has RRIRERPPRLPRPRPRPLEGPRP a recorded shrunken log2 fold change greater than or equal to 0.009? not met

* * *

Test system: Escherichia coli TOP10;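 further: peptides expressed intracellularly from a pBAD plasmid library in pooled LB shake-flask culture, induced with 0.3% L-arabinose, DNA abundance read by NGS, three biological replicates, DESeq2 with apeglm shrinkage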
Experiment: shrunken log2 fold change of peptide-encoding DNA abundance (4.5 h post-induction vs induction); higher = less antimicrobial activity (less host growth inhibition)
Conditions: time post-induction: 4.5 h; library: site-saturation at positions 5, 18, 19, 20
Cut-off 0.3 on shrunken log2 fold change, inclusive. At or above means 1; below means -1.

chain	classification
RRIRMRPPRLPRPRPRPQTPPRP	1
RRIRFRPPRLPRPRPRPRIRPRP	-1
RRIRRRPPRLPRPRPRPGLNPRP	-1
RRIRSRPPRLPRPRPRPPAEPRP	1
RRIRIRPPRLPRPRPRPPGKPRP	1

Has RRIRARPPRLPRPRPRPHMTPRP a recorded shrunken log2 fold change greater than or equal to 0.3? -1

Try RRIRHRPPRLPRPRPRPPQEPRP next. -1

Try RRIRRRPPRLPRPRPRPEERPRP next. 1

Source: the supplement of paper PMC9112550
